Tested on: cowpox virus (CV)
assay.method.text: microbe, parasite or virus in culture
Type: cell-based
setup.conditions: read-out: Cowpox virus EC50
measured.property: EC50 (µM)
Reply with just the number (in µM).

{"compound": "Nc1nc2c(ncn2CCOCP(=O)(O)O)c(=O)[nH]1", "experimental.target": "cowpox virus (CV)", "value.measured": 11.4}

Exam item: What EC50 value was documented for this compound, CCCCOC(=O)C(C)NP(=O)(COCCn1cnc2c(NC3CC3)nc(N)nc21)NC(C)C(=O)OCCCC (centres unmarked) ?
Marked response: 0.26

Exam item: Field request: EC50 | item: C[C@H](NP1(=O)CO[C@@H](Cn2ccc(N)nc2=O)CO1)C(=O)OCCc1ccccc1 (some centres unmarked) [Phenethyl alaninyl cyclic HPMPC—mixture, Phenethyl alaninyl cyclic HPMPC]
Marked response: 6.8

Exam item: Form field: reported EC50 of Nc1ncnc2c1ncn2C[C@@H](CO)OCP(=O)(O)O
Marked response: 5

Exam item: EC50 lookup needed for Nc1nc(NC2CC2)c2ncn(CCOCP(=O)(O)O)c2n1 , thanks.
Marked response: 28

Exam item: Reported EC50, compound CCOC(=O)C(C)NP1(=O)COC(Cn2ccc(N)nc2=O)CO1 (single isomer, unassigned; isomer i) [Ethyl alaninyl cyclic HPMPC—isomer I, Ethyl alaninyl cyclic HPMPC] : ____
Marked response: 27

Exam item: Query: EC50; subject: CCCCOC(=O)[C@H](C)NP(=O)(COCCn1cnc2c(N)ncnc21)N[C@@H](C)C(=O)OCCCC
Marked response: 10

Exam item: Endpoint output: EC50 of CCOC(=O)C(C)NP1(=O)COC(Cn2ccc(N)nc2=O)CO1 (single isomer, unassigned; isomer ii) [Ethyl alaninyl cyclic HPMPC—isomer II, Ethyl alaninyl cyclic HPMPC] . Value?
Marked response: 26

Cited source for all entries: paper PMC9628899
